# Tested on: biotinyl-Ile-oxazolone
# ASSAY METHOD TEXT: self-aminoacylation, catalytic enhancement (BIO) (fold over background); higher = more active; k-Seq, kA / k0A0; sequences stand for … in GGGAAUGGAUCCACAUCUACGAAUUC…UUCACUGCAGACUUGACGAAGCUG
Variants at the floor of the assay were thinned out.
QUANTITY NAME: self-aminoacylation
Lab note: record the figure alone, no unit after it.

Form field - read-out: self-aminoacylation; system: biotinyl-Ile-oxazolone; submitted item: AUUACCCUGGUCAUUGCGUGA [Fam2.1 aminoacylation ribozyme variant]
6.44

Form field - read-out: self-aminoacylation; system: biotinyl-Ile-oxazolone; submitted item: UUACUUCAAAAAAUCGGUCUG [Fam1A.1 aminoacylation ribozyme variant]
1.44

Form field - read-out: self-aminoacylation; system: biotinyl-Ile-oxazolone; submitted item: CUACUUAAAACAAACGGUCUG [Fam1A.1 aminoacylation ribozyme variant]
0.911

Form field - read-out: self-aminoacylation; system: biotinyl-Ile-oxazolone; submitted item: AUUACCGUGGUCAUCGAGUAA [Fam2.1 aminoacylation ribozyme variant]
1.42

Form field - read-out: self-aminoacylation; system: biotinyl-Ile-oxazolone; submitted item: AAGUUUCCUAAUAGUCCCAAG [Fam3.1 aminoacylation ribozyme variant]
1.57

---

# System: biotinyl-Trp-oxazolone
# ASSAY METHOD TEXT: self-aminoacylation, catalytic enhancement (BWO) (fold over background); higher = more active; k-Seq, kA / k0A0; sequences stand for … in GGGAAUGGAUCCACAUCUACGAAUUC…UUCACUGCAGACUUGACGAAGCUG
Fewer inactive variants are shown than the library holds.
QUANTITY NAME: self-aminoacylation
Lab note: record the figure alone, no unit after it.

Some sequences with known self-aminoacylation results, for comparison:
- UAGUUUACUAAUAGUCGCAAG [Fam3.1 aminoacylation ribozyme variant]: 1.65
- CUUCUUCAAAAAAUCGGUCUG [Fam1A.1 aminoacylation ribozyme variant]: 5.39
- AUGCACCCAGGUCAUCGGGUG [Fam2.2 aminoacylation ribozyme variant]: 5.32

Next:
Form field - read-out: self-aminoacylation; system: biotinyl-Trp-oxazolone; submitted item: CCACAAUUCAAGCCAUCGGUC [Fam1B.1 aminoacylation ribozyme variant]
1.3

---

Reported self-aminoacylation values follow for various sequences
# System: biotinyl-Trp-oxazolone
# ASSAY METHOD TEXT: self-aminoacylation, catalytic enhancement (BWO) (fold over background); higher = more active; k-Seq, kA / k0A0; sequences stand for … in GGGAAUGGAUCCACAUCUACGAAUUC…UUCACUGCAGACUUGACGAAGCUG
Fewer inactive variants are shown than the library holds.
Lab note: record the figure alone, no unit after it.

• AUUCACCAAGGUUAUCGGGUG [Fam2.2 aminoacylation ribozyme variant] = 6.57
• GUUACCCUGGUCAUCGAGUCA [Fam2.1 aminoacylation ribozyme variant] = 1.1
• CUACUUCAAACAAUCCGUCUU [Fam1A.1 aminoacylation ribozyme variant] = 0.691

Form field - read-out: self-aminoacylation; system: biotinyl-Trp-oxazolone; submitted item: UGACUUCAAACAAUCGGUCUG [Fam1A.1 aminoacylation ribozyme variant]
39.2

Form field - read-out: self-aminoacylation; system: biotinyl-Trp-oxazolone; submitted item: CAACACUUCAAGCAAUCUGUC [Fam1B.1 aminoacylation ribozyme variant]
0.398

Form field - read-out: self-aminoacylation; system: biotinyl-Trp-oxazolone; submitted item: AUUCUCCUAGGUCAUCGAGUG [Fam2.2 aminoacylation ribozyme variant]
3.73

Form field - read-out: self-aminoacylation; system: biotinyl-Trp-oxazolone; submitted item: AAGUCUGCUAAUAGCCGCAAG [Fam3.1 aminoacylation ribozyme variant]
3.25

Form field - read-out: self-aminoacylation; system: biotinyl-Trp-oxazolone; submitted item: AUUCCCCUGGUCAUCGAUUGA [Fam2.1 aminoacylation ribozyme variant]
2.47

Form field - read-out: self-aminoacylation; system: biotinyl-Trp-oxazolone; submitted item: AUACACCUAGGGCAUCGGGUG [Fam2.2 aminoacylation ribozyme variant]
4.14
